Cited source for all entries: patent US7192980B2

Test system: MIP 101 colon carcinoma
test-details: Anchorage Dependent Growth Monolayer Assay (ADGMA), MIP 101
Format: cell-based
experimental-setup: Homo sapiens, Colon carcinoma cell, 72 h; MIP 101 colon carcinoma cells, 3-day exposure, MTT, A540; * = average of two independent experiments
Description: As indicated above, all of the compounds of formula I are anti-tumor agents and are, therefore, useful in inhibiting the growth of various lymphomas, sarcomas, carcinomas, myelomas, and leukemia cell lines. […] The ADGMA compares the number of viable cells following a 3-day exposure to a test compound relative to the number of cells present at the time the test compound was added. […] The absorbance at 540 nm (A540) of the formazan derivative is proportional to the number of viable cells. […]
Item-by-item account of pIC50
Please keep in mind that pIC50 is minus log10 of the molar concentration; only the number is needed.

C=C/C=C\[C@H](C)C(OC(N)=O)C(C)C(O)C(C)C/C(C)=C\[C@H](C)[C@@H](O)[C@@H](C)/C=C\C(=O)N(C)c1ccccc1 (some centres unmarked) : 5.49

Exercise: What value of pIC50 has been reported for the following molecule? CC(=O)O[C@H]1C(=O)[C@@]2(C)[C@H]([C@H](OC(=O)c3ccccc3)[C@]3(O)C[C@H](OC(=O)[C@H](O)[C@@H](NC(=O)c4ccccc4)c4ccccc4)C(C)=C1C3(C)C)[C@]1(OC(C)=O)CO[C@@H]1C[C@@H]2O [Paclitaxel, reference compound]
Key: 6.70

Exercise: Can you handle C=C/C=C\[C@H](C)C(OC(N)=O)C(C)C(O)C(C)C/C(C)=C\[C@H](C)[C@@H](O)[C@@H](C)/C=C\COc1ccccc1 (some centres unmarked) next?
Key: 6.40

Exercise: Same question, C=C/C=C\[C@H](C)C(OC(N)=O)C(C)C(O)C(C)C/C(C)=C\[C@H](C)[C@@H](O)[C@@H](C)/C=C\C(O)CC1CCCC1 (some centres unmarked) this time
Key: 8.22

Exercise: Note, next up: C=C/C=C\[C@H](C)C(OC(N)=O)C(C)C(O)C(C)C/C(C)=C\[C@H](C)[C@@H](O)[C@@H](C)CN(C)C(=O)CC1CCCCC1 (some centres unmarked)
Key: 6.22

Exercise: Could you do the same for C=C/C=C\[C@H](C)C(OC(N)=O)C(C)C(O)C(C)C/C(C)=C\[C@H](C)[C@@H](O)[C@@H](C)COC(=O)NC1CCCCC1 (some centres unmarked) , please?
Key: 5.49

Exercise: Now give it for C=C/C=C\[C@H](C)[C@H](OC(N)=O)[C@@H](C)[C@H](O)[C@@H](C)C/C(C)=C\C(C)C(O)C(C)/C=C\[C@@H](O)C[C@H]1CCCC(=O)O1 (some centres unmarked) too.
Key: 7.22

Exercise: Subsequent entry: C=C/C=C\[C@H](C)C(OC(N)=O)C(C)C(O)C(C)C/C(C)=C\[C@H](C)[C@@H](O)[C@@H](C)/C=C\C(O)CC(C)C (some centres unmarked)
Key: 7.00

----------
System: 1A9PTX22 ovarian carcinoma
test-details: Anchorage Dependent Growth Monolayer Assay (ADGMA), 1A9PTX22
Type: cell-based
experimental-setup: Homo sapiens, 1A9/ptx-22, 72 h; 1A9PTX22 ovarian carcinoma cells (paclitaxel-selected subline), 3-day exposure, MTT, A540; * = average of two independent experiments
recorded-metric: pIC50
Scale: negative log10 of molar concentration, which is what pIC50 denotes.

Exercise: Record C=C/C=C\[C@H](C)C(OC(N)=O)C(C)C(O)C(C)C/C(C)=C\[C@H](C)[C@@H](O)[C@@H](C)CN(C)C(=O)CC1CCCCC1 (stereo partly drawn) : what is its pIC50 with 1A9PTX22 ovarian carcinoma?
Key: 7.10

Exercise: Try this molecule too: C=C/C=C\[C@H](C)C(OC(N)=O)C(C)C(O)C(C)C/C(C)=C\[C@H](C)[C@@H](O)[C@@H](C)/C=C\C(=O)N(C)c1ccccc1 (stereo partly drawn)
Key: 6.40

Exercise: And C=C/C=C\[C@H](C)C(OC(N)=O)C(C)C(O)C(C)C/C(C)=C\[C@H](C)[C@@H](O)[C@@H](C)COC(=O)NC1CCCCC1 (stereo partly drawn) ?
Key: 6.40
